Target: human SGLT2 (Homo sapiens, UniProt P31639)
Sequence (P31639 1-672): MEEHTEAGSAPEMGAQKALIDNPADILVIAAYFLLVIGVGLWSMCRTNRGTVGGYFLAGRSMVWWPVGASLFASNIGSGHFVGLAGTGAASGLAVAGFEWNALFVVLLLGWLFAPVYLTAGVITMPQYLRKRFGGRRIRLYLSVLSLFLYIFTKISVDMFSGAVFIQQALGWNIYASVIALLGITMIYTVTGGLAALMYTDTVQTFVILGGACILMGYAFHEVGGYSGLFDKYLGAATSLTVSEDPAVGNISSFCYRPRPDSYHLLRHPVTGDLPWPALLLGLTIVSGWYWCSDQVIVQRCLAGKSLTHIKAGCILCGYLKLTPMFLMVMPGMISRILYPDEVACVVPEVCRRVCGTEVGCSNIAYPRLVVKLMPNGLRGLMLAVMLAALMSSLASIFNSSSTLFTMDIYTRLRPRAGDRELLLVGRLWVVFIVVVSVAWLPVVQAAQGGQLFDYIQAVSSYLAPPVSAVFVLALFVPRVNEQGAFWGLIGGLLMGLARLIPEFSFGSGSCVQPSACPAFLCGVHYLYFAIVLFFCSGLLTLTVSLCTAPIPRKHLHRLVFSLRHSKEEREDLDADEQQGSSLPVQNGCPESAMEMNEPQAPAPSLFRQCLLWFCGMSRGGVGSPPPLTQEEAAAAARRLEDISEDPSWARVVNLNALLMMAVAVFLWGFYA
Assay: Inhibition of human Na+-glucose cotransporter (human SGLT2) activity: methyl-α-D-glucopyranoside intake in CHO cells stably expressing human SGLT2
Conditions: inhibition of methyl-α-D-(U-14C)glucopyranoside intake, CHO cells stably expressing human SGLT2, 37° C., two hours
For each of the compounds below, state its IC50.
Give bare numbers, in nM.

INSERT INTO assay_data (compound_structure, display_unit, value_reported) VALUES
  ('COc1ccc(Cc2cc3cccccc-3c2)cc1[C@@H]1O[C@H](CO)[C@@H](O)[C@H](O)[C@H]1O', 'nM', 16),
  ('OC[C@H]1O[C@@H](c2cccc(Cc3ccc4cccc-4cc3)c2)[C@H](O)[C@@H](O)[C@@H]1O', 'nM', 99),
  ('CCOc1ccc(Cc2cc3cccccc-3c2)cc1[C@@H]1O[C@H](CO)[C@@H](O)[C@H](O)[C@H]1O', 'nM', 16),
  ('OC[C@H]1O[C@@H](c2cc(Cc3cc4cccccc-4c3)ccc2O)[C@H](O)[C@@H](O)[C@@H]1O', 'nM', 8.9),
  ('COc1cc(OC)c([C@@H]2O[C@H](CO)[C@@H](O)[C@H](O)[C@H]2O)cc1Cc1cc2cccccc-2c1', 'nM', 5.7);

The following compounds each have a reported value; give each one's IC50.
1. OC[C@H]1O[C@@H](c2cccc(Cc3cc4cccccc-4c3)c2)[C@H](O)[C@@H](O)[C@@H]1O
2. Cc1ccc(Cc2cc3cccccc-3c2)cc1[C@@H]1O[C@H](CO)[C@@H](O)[C@H](O)[C@H]1O

1. 22
2. 29
